Could you please report measured YAP1 (% UTC) for the items listed next?
# System: Yap1 mRNA
# TEST_NAME: Antisense inhibition of human Yap1 in A-431 cells by cEt gapmers, single dose (Example 2, RTS4814)
# Format: cell-based
# CONDITION_DESCRIPTION: Table 33; Yap1 mRNA, percent of untreated control; 3-10-3 cEt gapmers targeting SEQ ID NO.: 1, and 2
Strand notation (5' to 3'): a small letter for the sugar, then the base; units joined by * are phosphorothioate-linked, units joined directly phosphodiester-linked; [ ] holds rarer units or linkages, { } end groups; capitals alone tell only the bases. k = constrained ethyl (cEt); [5mC] = 5-methylcytosine; d = 2'-deoxy (DNA)
One number for each entry, in % UTC.

Previously resolved entries follow.
1074579 (DNA k[5mC]*k[5mC]*kA*d[5mC]*dT*dA*dT*dA*dA*dA*dG*d[5mC]*dT*kT*kA*kT) [compound 1074579] = 6
1075891 (antisense kA*kG*kA*dT*dT*dA*dA*dA*dA*dG*dT*dA*dG*kG*k[5mC]*k[5mC]) [compound 1075891] = 89

Problem: // lookup YAP1 (% UTC) for 1076403 (antisense kA*kT*kT*dT*dA*dA*dG*dA*d[5mC]*d[5mC]*dT*dG*dG*kT*kG*kA) [compound 1076403]
Result: 26

====

# Tested on: Yap1 mRNA
# TEST_NAME: Antisense inhibition of human Yap1 in SNU-449 cells by modified oligonucleotides, single dose (Example 5, RTS36584)
# Assay type: cell-based
# CONDITION_DESCRIPTION: Table 49; Yap1 mRNA level relative to untreated control; modified oligonucleotides targeting SEQ ID NO.: 1 and 2
Strand notation (5' to 3'): a small letter for the sugar, then the base; units joined by * are phosphorothioate-linked, units joined directly phosphodiester-linked; [ ] holds rarer units or linkages, { } end groups; capitals alone tell only the bases. e = 2'-O-(2-methoxyethyl) (MOE); k = constrained ethyl (cEt); [5mC] = 5-methylcytosine; d = 2'-deoxy (DNA)
# cutoff 30 % UT applies to YAP1 (% UT); >= gives Yes, < gives No

Problem: // inclusive: YAP1 (% UT) at least 30 % UT? input: 1198339 (kA*k[5mC]*kT*d[5mC]*dT*dT*dA*dT*dA*dT*dG*dG*kT*eT*kT*eT; antisense) [Compound 1198339]
Result: No

Problem: // inclusive: YAP1 (% UT) at least 30 % UT? input: 1198572 (antisense kA*kA*kG*d[5mC]*dA*d[5mC]*dT*dT*dT*dT*dA*d[5mC]*kA*kT*kT*eA) [Compound 1198572]
Result: Yes

Problem: // inclusive: YAP1 (% UT) at least 30 % UT? input: 1198305 (kG*kA*kG*dG*dT*dA*dT*dA*dA*d[5mC]*dT*dG*kG*eG*k[5mC]*eA; antisense) [Compound 1198305]
Result: Yes

Problem: // inclusive: YAP1 (% UT) at least 30 % UT? input: 1198351 (kT*kT*kT*dA*dT*dG*dT*dA*dA*dT*dA*dT*kT*eG*k[5mC]*eA; antisense) [Compound 1198351]
Result: Yes

====

Could you please report measured YAP1 (% UTC) for the items listed next?
# Tested on: Yap1 mRNA
# TEST_NAME: Antisense inhibition of human Yap1 in A-431 cells by cEt gapmers, single dose (Example 2, RTS4814)
# Assay type: cell-based
# CONDITION_DESCRIPTION: Yap1 mRNA as percent of untreated control; A-431 cells; 3-10-3 cEt gapmers targeting SEQ ID NO.: 1, and 2; Table 30
# Description: Modified oligonucleotides were designed to target a Yap1 nucleic acid and were tested for their effect on Yap1 mRNA level in vitro. The modified oligonucleotides were tested in a series of experiments that had similar culture conditions. […] After a treatment period of approximately 48 hours, RNA was isolated from the cells and Yap1 mRNA levels were measured by quantitative real-time RTPCR. […] Yap1 mRNA levels were normalized to total RNA content, as measured by RIBOGREEN®. […]
Strand notation (5' to 3'): a small letter for the sugar, then the base; units joined by * are phosphorothioate-linked, units joined directly phosphodiester-linked; [ ] holds rarer units or linkages, { } end groups; capitals alone tell only the bases. k = constrained ethyl (cEt); [5mC] = 5-methylcytosine; d = 2'-deoxy (DNA)
One number for each entry, in % UTC.

1075568 (kT*kT*kA*dT*dT*dT*dA*dA*dG*dT*dT*dG*dG*kG*kA*kG; antisense) [compound 1075568] = 23
1074992 (antisense k[5mC]*kA*kA*dT*dT*dA*dT*dT*dT*dG*dA*d[5mC]*dT*k[5mC]*k[5mC]*k[5mC]) [compound 1074992] = 63
1076208 (kG*kA*kG*dG*dA*dA*dT*dA*dT*dT*dA*d[5mC]*dA*kG*kA*k[5mC]; antisense) [compound 1076208] = 15
1074512 (kG*kG*kA*dT*dA*d[5mC]*dA*dT*dT*d[5mC]*d[5mC]*dA*d[5mC]*kT*kA*k[5mC]; antisense) [compound 1074512] = 64
1075024 (antisense kA*k[5mC]*kT*dG*dA*dA*d[5mC]*dA*dA*dG*dT*dA*dT*k[5mC]*kT*kT) [compound 1075024] = 32
958499 (ATTAGAGTATGTGGCA; 3-10-3 cEt gapmer, further chemistry not given here) [compound 958499] = 1

Please examine the following record next.
Problem: // lookup YAP1 (% UTC) for 1074640 (antisense kG*k[5mC]*k[5mC]*dA*dA*dA*dA*dT*dA*d[5mC]*dT*dT*dA*kG*kA*kT) [compound 1074640]
Result: 26

====

# Tested on: Yap1 mRNA
# TEST_NAME: Dose-dependent inhibition of human Yap1 in A-431 cells (Example 6, 5,000 cells per well, RTS4814)
# Format: cell-based
# CONDITION_DESCRIPTION: Table 54; A-431 cells, free uptake, 444 nM, approximately 48 hours, RTS4814
Strand notation (5' to 3'): a small letter for the sugar, then the base; units joined by * are phosphorothioate-linked, units joined directly phosphodiester-linked; [ ] holds rarer units or linkages, { } end groups; capitals alone tell only the bases. k = constrained ethyl (cEt); [5mC] = 5-methylcytosine; d = 2'-deoxy (DNA)
VALUE_TYPE: % UTC 444 nM (% UTC)
Numbers only, in % UTC.

Previously resolved entries follow.
716370 (k[5mC]*kA*kG*dT*dG*d[5mC]*d[5mC]*dT*dG*d[5mC]*dA*dT*d[5mC]*kA*kG*kT; antisense) [compound 716370] = 79
716484 (antisense k[5mC]*kA*k[5mC]*dT*dT*dT*dT*d[5mC]*d[5mC]*dA*dG*d[5mC]*dT*kA*kA*k[5mC]) [compound 716484] = 78
716469 (antisense kG*kT*kT*dT*dG*d[5mC]*dT*d[5mC]*d[5mC]*dT*dT*dT*d[5mC]*k[5mC]*kA*kA) [compound 716469] = 78

Please examine the following record next.
Problem: State its % UTC 444 nM on Yap1 mRNA: 716445 (antisense kG*kT*kA*dT*dG*dT*dG*dG*d[5mC]*dA*dA*dT*dA*kA*kT*kT) [compound 716445]
Result: 82

====

# Tested on: Yap1 mRNA
# TEST_NAME: Dose-dependent inhibition of human Yap1 in SNU-449 cells (Example 9, RTS36584)
# Assay type: cell-based
# CONDITION_DESCRIPTION: 500.0 nM, free uptake, approximately 48 hours
Strand notation (5' to 3'): a small letter for the sugar, then the base; units joined by * are phosphorothioate-linked, units joined directly phosphodiester-linked; [ ] holds rarer units or linkages, { } end groups; capitals alone tell only the bases. e = 2'-O-(2-methoxyethyl) (MOE); k = constrained ethyl (cEt); [5mC] = 5-methylcytosine; d = 2'-deoxy (DNA); m = 2'-O-methyl
VALUE_TYPE: % UTC (Yap1 mRNA) (% UTC)
Answers are plain numbers, in % UTC.

Previously resolved entries follow.
1198552 (kA*kG*kA*dG*dT*dA*dT*dG*dT*dG*dG*d[5mC]*kA*kA*kT*eA; antisense) [compound 1198552] = 23
1197235 (kA*kT*kT*dA*mG*dA*dG*dT*dA*dT*dG*dT*dG*kG*k[5mC]*kA; antisense) [compound 1197235] = 16

Problem: // lookup % UTC (Yap1 mRNA) for 1197229 (kG*kG*kA*dA*mA*dT*dT*dG*dT*d[5mC]*dT*d[5mC]*dA*kT*kG*k[5mC]; antisense) [compound 1197229]
Result: 16

====

# System: Yap1 mRNA
# TEST_NAME: Dose-dependent inhibition of human Yap1 in SNU-449 cells (Example 9, RTS36584)
# Format: cell-based
# CONDITION_DESCRIPTION: 2000.00 nM, free uptake, approximately 48 hours
Strand notation (5' to 3'): a small letter for the sugar, then the base; units joined by * are phosphorothioate-linked, units joined directly phosphodiester-linked; [ ] holds rarer units or linkages, { } end groups; capitals alone tell only the bases. e = 2'-O-(2-methoxyethyl) (MOE); k = constrained ethyl (cEt); [5mC] = 5-methylcytosine; d = 2'-deoxy (DNA); m = 2'-O-methyl
VALUE_TYPE: % UTC (Yap1 mRNA) (% UTC)
One number for each entry, in % UTC.

1198543 (kA*kT*kT*dG*dT*d[5mC]*dT*d[5mC]*dA*dT*dG*d[5mC]*k[5mC]*kT*kT*eA; antisense) [compound 1198543] = 6
1198616 (kT*kT*kT*dA*dA*dA*dG*dT*dG*dT*dA*dT*kG*kT*k[5mC]*eA; antisense) [compound 1198616] = 5
1198406 (kG*d[5mC]*dT*dT*dT*dG*dG*dA*dA*dG*dA*kT*e[5mC]*kT*eG*kA; antisense) [compound 1198406] = 16
1198624 (kA*k[5mC]*kT*dA*dA*dG*dT*dA*dA*dG*dG*dT*kT*kT*k[5mC]*e[5mC]; antisense) [compound 1198624] = 9
1198958 (kT*kG*dT*dA*dT*dG*dT*d[5mC]*dA*dG*dA*kA*dG*kA*dG*kT; antisense) [compound 1198958] = 5

// each substance listed below needs its % UTC (Yap1 mRNA)
1. 1198457 (kA*kT*dT*dG*dT*d[5mC]*dT*d[5mC]*dA*dT*dG*e[5mC]*k[5mC]*eT*kT*eA; antisense) [compound 1198457]
2. 1200785 (kA*kT*kT*dG*dT*mC*dT*d[5mC]*dA*dT*dG*d[5mC]*d[5mC]*kT*kT*kA; antisense) [compound 1200785]

Result:
1. 12
2. 24
